assay-overview: A CellTox Green Cytotoxicity Assay to monitor cytotoxicity in HepG2 cells - 32 hour (AID 1224883); also: nearly all actives have a fitted effect of over 50% in size; also: potency is read from the fitted curve at half-maximal effect
protocol-conditions: CellTox Green fluorescence; series mostly up to 76.8 µM
Inconclusive results are not listed. Active and inactive are the calls of the source. Calls follow the shape of the dose curve; as a rule, active = well fitted activation curve with a large enough effect in the repeat runs; inconclusive = weak or mixed curves; inactive = flat fitted curve, though single readings scatter.
reported-property: Potency

Would you please look over these solved cases?
>  <molecule>
CCCC[P+](C)(CCCC)CCCC

>  <Potency>
inactive

$$$$
>  <molecule>
O=C1c2ccccc2C(=O)N1SC1CCCCC1

>  <Potency>
24.5 µM (active)

$$$$
>  <molecule>
CCC(=O)C(=O)CC

>  <Potency>
inactive

$$$$
>  <molecule>
CCCCCC/C=C\CCCCCCCC(=O)O

>  <Potency>
inactive

$$$$
>  <molecule>
O=C(O)c1cc(=O)c2ccccc2o1

>  <Potency>
inactive

$$$$
>  <molecule>
COC(=O)Nc1nc2ccc(C(=O)c3ccccc3)cc2[nH]1

>  <Potency>
inactive

$$$$
>  <molecule>
CCCCCCCCCCC[C@@H](C[C@@H]1OC(=O)[C@H]1CCCCCC)OC(=O)[C@H](CC(C)C)NC=O

>  <Potency>
16.9 µM (active)

$$$$
>  <molecule>
CCCC1CCC(=O)CC1

>  <Potency>
inactive

$$$$

response.value for O=c1[nH]c(=O)n([C@H]2C[C@H](O)[C@@H](CO)O2)cc1F (field: Potency) = 6.01 µM (active)

response.value for CCCCCCCCCCCC(=O)OCC(C)OC(=O)CCCCC(=O)O (stereo not drawn) (field: Potency) = inactive

response.value for Cc1ccc(O)c(O)c1 (field: Potency) = inactive

response.value for CCCCCCOC(=O)C(C)CC (stereo not drawn) (field: Potency) = inactive

response.value for CC(C)NC[C@@H](O)COc1ccc(CC(N)=O)cc1 (field: Potency) = inactive

* * *

assay-overview: qHTS assay for small molecule disruptors of the mitochondrial membrane potential (AID 720635)
protocol-conditions: HepG2 mitochondrial membrane potential, Mito-MPS dye ratio; series mostly up to 83.2 µM
Inconclusive results are not listed. Active and inactive are the calls of the source. Calls come from the whole dose curve; as a rule, active = well fitted inhibition curve with a large enough effect in the signal ratio in the repeat runs; inconclusive = weak or mixed curves, or effect the other way; inactive = flat fitted curve, though single readings scatter; the % refers to the signal ratio.
Your reply should match one of these outcome classes. 1 (yes) (active), 0 (no) (inactive)

Which outcome did this test record for the compound CC[N+](CC)(CC)CCOc1ccc(/C=C/c2ccccc2)cc1 ?
0 (no)

Which outcome did this test record for the compound CN(C)Cc1ccccc1O ?
0 (no)

Which outcome did this test record for the compound CCCCOC(=O)CC ?
0 (no)

Which outcome did this test record for the compound COC(=O)C1=C(C)NC(C)=C(C(=O)OCCN2CCN(C(c3ccccc3)c3ccccc3)CC2)C1c1cccc([N+](=O)[O-])c1 (stereo not drawn) ?
1 (yes)

Which outcome did this test record for the compound CC/C=C\CCCCCO ?
0 (no)

Which outcome did this test record for the compound COC(C)=O ?
0 (no)

Which outcome did this test record for the compound COc1cc2nc(N3CCN(C(=O)c4ccco4)CC3)nc(N)c2cc1OC ?
0 (no)

Which outcome did this test record for the compound CC(C)CCOC(=O)/C=C/c1ccccc1 ?
0 (no)

Which outcome did this test record for the compound Oc1c(I)cc(Cl)c2cccnc12 ?
1 (yes)

Which outcome did this test record for the compound CCc1oc2ccccc2c1C(=O)c1cc(I)c(O)c(I)c1 ?
1 (yes)

Which outcome did this test record for the compound CC(C)(C)c1csc(-c2cc3cc(OCc4ccccc4CC(=O)O)ccc3o2)n1 ?
1 (yes)

Which outcome did this test record for the compound Cc1cccc2cccnc12 ?
0 (no)

Which outcome did this test record for the compound Nc1cc(Cl)c(O)c(Cl)c1 ?
1 (yes)
